# Tested on: OVCAR-8
# experimental details: NCI tumour cell line growth inhibition, 48 h
Active and inactive are the calls of the source. Cut-off read from the data, not from the text of the source: active = GI50 up to about 1.1 µM and inactive = higher.
Record form. Attribute: GI50. Fill in for each entry.

Qu. For the molecule shown here, Cc1cc(SCC(=O)c2ccccc2)nc2ccccc12 , give the reported GI50.
Ans. > 100 µM (inactive)

Qu. Need GI50 of COc1ccc(Cc2nc3cc(C(F)(F)F)ccc3n2CCCN(C)C)cc1 , thanks.
Ans. 30.6 µM (inactive)

Qu. Quick check: GI50 of COc1ccc(Cc2cc(Cc3ccc(OC)cc3)cc(Cc3ccc(OC)cc3)c2)cc1 ?
Ans. > 100 µM (inactive)

Qu. Given the molecule O=C(Nc1cc(Cl)c(Cl)cc1Cl)C(=O)C1C(=O)NC(=S)NC1=O , what is its reported GI50?
Ans. > 100 µM (inactive)

Qu. So what does the record say about GI50 for Nc1nc(Cl)cc(NCCO)n1 ?
Ans. > 100 µM (inactive)

Qu. For Cn1cc2ccccc2c1-c1nc(F)nc(Nc2ccc(N)cc2)n1 , what is its reported GI50?
Ans. 21 µM (inactive)

----------
# Tested on: NCI-H522
# experimental details: NCI tumour cell line growth inhibition, 48 h
Activity calls are given as the source filed them. Cut-off read from the data, not from the text of the source: active = GI50 up to about 1.1 µM and inactive = higher.
test readout: GI50

Qu. # GI50 lookup, item COc1ccc(CNc2nc3c(NC(C)=O)cc(C(F)(F)F)cc3nc2-c2ccccc2)cc1OC
Ans. 2.69 µM (inactive)

Qu. Report GI50 for c1ccc(C(=NCCC2CNc3ccccc32)c2ccccc2)cc1 (centres undefined) please.
Ans. > 100 µM (inactive)

Qu. If you can, please state the reported GI50 value of N#C[BH2-][n+]1cn(C2CC(OP(=O)(O)OCC3OC(n4ccc(N)nc4=O)CC3O)C(CO)O2)c2nc(N)[nH]c(=O)c21 (centres undefined) .
Ans. > 100 µM (inactive)

Qu. What value of GI50 has been reported for the following compound? COc1cccc2c1C(=O)c1c(O)c3c(c(O)c1C2=O)C[C@@](O)(C(=O)CO)CC3OC1CC(NCCCC(OC(C)=O)OC(C)=O)C(O)C(C)O1 (some centres undefined)
Ans. 0.00129 µM (active)

Qu. What value of GI50 has been reported for the following compound? COc1ccc(/C=C\c2cc(OC)c(OC)c(OC)c2)c(O)c1O
Ans. 0.0942 µM (active)

Qu. GI50 lookup needed for COc1ccc(/C=C2\Sc3nnc(C)n3N=C2c2cc(F)c(Cl)cc2Cl)cc1OC , thanks.
Ans. 11.3 µM (inactive)

Qu. Fill in: GI50 of COc1cc(CNC(=O)CCCCCCCC/C=C/Br)ccc1O is ___
Ans. > 10 µM (inactive)

Qu. Consider the compound CC(C)(C)C(C#N)(C#N)c1ccc(C(C#N)(C#N)C(C)(C)C)nn1 and give its measured GI50.
Ans. > 100 µM (inactive)

Qu. What does the data say about its GI50? Entry: CN1CCN(C(=S)N(C(=O)c2ccco2)C2CCCCC2)CC1
Ans. > 100 µM (inactive)

----------
# System: 786-0
# experimental details: NCI tumour cell line growth inhibition, 48 h
Active and inactive are the calls of the source. Cut-off read from the data, not from the text of the source: active = GI50 up to about 1.1 µM and inactive = higher.
Pick from 1.0 for active, 0.0 for inactive when you respond.

Qu. For this compound, state the assay outcome: COc1cc(C(c2cc(OC)c(OC)c(OC)c2)N2C(=O)CCC2C(=O)O)cc(OC)c1OC (stereo unspecified)
Ans. 0.0

Qu. Assay outcome for c1ccc(C(=NCCC2CNc3ccccc32)c2ccccc2)cc1 (stereo unspecified) : what was it?
Ans. 0.0

Qu. Hey, what did the test say about COc1cc(C2c3cc4c(cc3OC(C)(O)C2C)OCO4)cc(OC)c1OC (stereo unspecified) ?
Ans. 1.0

Qu. Field: outcome | Entry: CC(C)(C)C(=O)OCC1CCC(n2cnc3c(=O)[nH]c(N)nc32)O1 (stereo unspecified)
Ans. 0.0

Qu. State the result this test recorded for FC1=C2C3CCC(C3)C2C1(F)F (stereo unspecified) .
Ans. 0.0

Qu. What call does the record list for C[C@@H](NC(=O)[C@@H]1C[C@]1(C)CO)c1cccc2ccccc12 ?
Ans. 0.0

Qu. # lookup: test call for [O-][n+]1c2cc3c(cc2[n+]([O-])c2c(O)cccc21)CN(CCN1CCOCC1)C3
Ans. 0.0

Qu. What is the recorded call for this compound in the test? CCOC1c2cc(OC)c(OC)cc2-c2ccc3ccccc3c2N1C (stereo unspecified)
Ans. 0.0

Qu. What outcome does the record of this test show for COc1cccc(/C(C=O)=C(\Cl)c2ccc(OC)c(OC)c2)c1 ?
Ans. 0.0

Qu. Hello, I am checking results. What call was entered for CC(C)=C/C=C1/CS(=O)(=O)C=C1C ?
Ans. 0.0

Qu. # outcome recorded in this test, key = CNc1ccc([N+](=O)[O-])cc1C(=O)N1CCC[C@H]1CO
Ans. 0.0

Qu. Dear colleague, could you share the recorded outcome for C[C@]12CC[C@H]3[C@@H](CCC4=CC(=O)CC[C@@H]43)[C@@H]1CC[C@]2(O)C(N)=O when you have a moment?
Ans. 0.0

Qu. // return assay outcome for CCCCc1ccc(Nc2nc3ncnc-3c[nH]2)cc1
Ans. 0.0

Qu. Answer briefly: the call reported for CNc1ccc(C(=O)CC(O)CCC(C)C2OC(=O)CC(O)CC(=O)CC(O)CC(O)CC(O)CC(O)CC3(O)CC(O)C(C(=O)NCCN4CCOCC4)C(CC(OC4OC(C)C(O)C(N)C4O)\C=C/C=C\C=C/C=C/C=C/C=C\C=C/C2C)O3)cc1 (stereo unspecified) in this assay.
Ans. 1.0

Qu. Hey, what did the test say about CN1C(=O)C(=CNc2ccccc2Cl)C(=O)N(C)C1=O ?
Ans. 0.0

Qu. Hi, sorry to bother you, what did the test record for CC1(C)OCN(c2ccc(S(N)(=O)=O)cc2)Cn2c1nc1ccccc12 ?
Ans. 0.0

Qu. Which outcome did this test record for the compound CC1=C(C(=O)NCC(C)O)CC(C(=O)NCC(C)O)=C(C)N1 (stereo unspecified) ?
Ans. 0.0

Qu. Check the results log: what was the call for c1ccc2c(c1)nc1n2CNCC1 ?
Ans. 0.0

Qu. What did the test return for O=C(/C=C(\Nc1ccccc1O)c1ccc(Br)cc1)C(Cl)(Cl)Cl ?
Ans. 0.0

Qu. Please state the recorded outcome for this compound: COC(=O)c1ccc(/C=C/c2cc(O)ccc2O)cc1
Ans. 0.0

Qu. Called result for c1ccc2cc3c(cc2c1)nc1ccccn13
Ans. 0.0
